Data origin, for the record: PubChem BioAssay (NCI)

# Test system: DU-145 prostate
# assay-procedure: NCI tumour cell line growth inhibition, 48 h
Assign TGI to each entry below.

Using known records, supply TGI for Oc1c(Br)cc(Br)cc1CN(Cc1cc(Br)cc(Br)c1O)C1CCCCC1
> 100 µM

Using known records, supply TGI for CCOC(=O)[C@H](CSSc1ncnc2cc[nH]c12)NC(=O)[C@@H](C)c1ccc2cc(OC)ccc2c1
> 100 µM

Using known records, supply TGI for Cc1cc(Cl)nc(NC(=O)CSc2ccc(Cl)cc2)n1
> 100 µM

Using known records, supply TGI for CC1CC(N)=Nc2ccccc2N1Cc1ccccc1 (stereo unspecified)
32.7 µM

Using known records, supply TGI for NC1=NC(=O)N2CC12 (stereo unspecified)
851 µM

Using known records, supply TGI for CC(=O)OCC1OC(n2c(C)c(N=Nc3ccc(C)cc3)c(C)c(C#N)c2=S)C(OC(C)=O)C(OC(C)=O)C1OC(C)=O (stereo unspecified)
> 100 µM

Using known records, supply TGI for N=c1ccn2c(n1)OC1C(OP(=O)(O)O)C(CO)OC12 (stereo unspecified)
> 100 µM

Using known records, supply TGI for Cc1ccc(SCC(OCn2cnc3c(N)ncnc32)[C@H](C)F)cc1 (stereo partly specified)
> 100 µM

Using known records, supply TGI for COc1cc2c(c(OC)c1OC)-c1ccc(OC)c(=O)cc1[C@@H](NC(=O)CCl)CC2
< 0.01 µM

Using known records, supply TGI for O=C(O)c1ccc(Nc2ccnc3cc(Cl)ccc23)cc1O
> 100 µM

Using known records, supply TGI for COc1ccc(C(=S)c2cc(OC)c(OC)c(OC)c2)cc1OC(=O)CCl
> 100 µM
